B1: tRNA (parent)
chain: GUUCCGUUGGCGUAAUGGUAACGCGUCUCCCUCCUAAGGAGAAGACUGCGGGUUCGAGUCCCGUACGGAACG

variants of: B1; experiment: yeast fitness relative to wild type (ratio to wild type); higher = fitter; tRNA-Arg(CCU), competitive growth, 37 C, YPD
Fewer inactive variants are shown than the library holds.
Label Yes when yeast fitness is at or above 0.6; anything below gets No.

> print(dat)
              variant.identifier  class.name
 1            C5A G58C C60A A70C          No
 2                     A36G G50A         Yes
 3       C5G A20C C22U C24U C55U          No
 4                     C46U G68A         Yes
 5                      U7C U35C         Yes
 6                C11U A14U U19G          No
 7   U3G U7C G18A C30G G41U C49G          No
 8                     C27G A45U         Yes
 9                U32G C49U G56A         Yes
10                U26G C33G G50C          No
11                C34G C49U C66U          No
12                 C4G A20G G51C         Yes
13                 G9A G17C A43U          No
14                C22U A43C C46A         Yes
15                U16G C31U A42U          No
16            C4G G10C C31U U53A          No
17                 G6C G39C G51A         Yes
18  U2G U19A A21G G39C C60G G67C          No
19                 U2G C11G C66U          No
20            C5U U28A C34U G41A          No
21                     A42G G56U          No
22                A14G U28C G67A          No
23       C5A G17A A36G G67A A69U          No
24                G48A C62G C66A          No
25                A45U C49G A70U         Yes
26            U3G U13G C30A C31A          No
27                     A45U A70C         Yes
28       C5U G18C C22U G50A U54C          No
29            U7G C27G A40U C49G          No
30                      G9A G56A         Yes
31                     A45G C62A         Yes
32                G25A C29U C60A         Yes
33                C11G G23C G39A          No
34                C24U G52A G56A         Yes
35           C22A C29U U53A C66U          No
36  C4A A14U A20C U28G G67A A70G          No
37                G48A G52C G67C          No
38                G10C U19A C66U          No
39                A15G C33U G50A          No
40      A42U A43U C62A A65U A69G          No
41                U47C C62G A65C          No
42                 C4U G44A A69C          No
43                G10A G38A A57G          No
44            U7G G23A C29U A36U          No
45                     A43U C66A         Yes
